# inhibition listing for each entry below
MEASURED_TARGET: AP-2 complex subunit beta (Homo sapiens) (UniProt P63010)
Sequence (P63010 whole entry, looked up, one chain of several): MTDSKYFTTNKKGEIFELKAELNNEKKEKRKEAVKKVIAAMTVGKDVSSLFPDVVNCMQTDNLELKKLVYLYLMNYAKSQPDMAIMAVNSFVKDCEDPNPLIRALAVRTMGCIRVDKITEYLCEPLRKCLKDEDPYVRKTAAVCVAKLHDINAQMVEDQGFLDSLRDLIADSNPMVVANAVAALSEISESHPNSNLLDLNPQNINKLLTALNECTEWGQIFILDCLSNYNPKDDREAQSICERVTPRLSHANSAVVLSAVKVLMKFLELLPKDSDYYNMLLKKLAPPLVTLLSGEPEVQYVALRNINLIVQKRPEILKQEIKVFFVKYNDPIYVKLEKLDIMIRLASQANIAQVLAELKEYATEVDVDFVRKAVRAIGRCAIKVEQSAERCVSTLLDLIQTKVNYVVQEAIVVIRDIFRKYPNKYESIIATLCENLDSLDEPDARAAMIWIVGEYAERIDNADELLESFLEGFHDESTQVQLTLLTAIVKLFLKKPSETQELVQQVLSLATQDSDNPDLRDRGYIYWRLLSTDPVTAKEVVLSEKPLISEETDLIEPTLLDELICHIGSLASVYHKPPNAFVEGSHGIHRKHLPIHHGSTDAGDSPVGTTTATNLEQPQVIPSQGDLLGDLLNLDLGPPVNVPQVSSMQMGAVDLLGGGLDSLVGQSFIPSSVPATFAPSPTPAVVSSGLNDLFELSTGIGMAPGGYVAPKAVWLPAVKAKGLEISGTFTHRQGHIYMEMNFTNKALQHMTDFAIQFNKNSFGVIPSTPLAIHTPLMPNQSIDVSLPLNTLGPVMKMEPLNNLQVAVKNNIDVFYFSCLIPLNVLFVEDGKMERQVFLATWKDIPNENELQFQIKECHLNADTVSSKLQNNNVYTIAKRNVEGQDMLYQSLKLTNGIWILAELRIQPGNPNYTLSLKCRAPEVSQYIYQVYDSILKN
EXPERIMENT_NOTES: beta-arrestin/AP2 interaction blockers – biochemical, validation set, GST-AP2 beads, flow cytometry, pilot screen (AID 504541);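 further: AP2 carries R879A mutation and is captured from E. coli lysate; bead-bound FITC arrestin peptide fluorescence measuring arrestin peptide binding to AP2; 0% = DMSO wells and 100% = excess unlabeled arrestin peptide control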
MEASUREMENT_SETUP: FITC arrestin peptide, at 10 µM, hits give high values, AP2 beta2 appendage fragment, R879A mutant
// return numeric value only (unit: %, not printed)

Some compounds with recorded inhibition:
COMPOUND: O=C(CNC(=O)OCc1ccccc1)Oc1cc2oc(=O)cc(-c3ccccc3)c2cc1Cl
MEASURED_TARGET: AP-2 complex subunit beta (Homo sapiens) (UniProt P63010)
inhibition, %: 12.8
--
COMPOUND: COC(=O)c1[nH]c(=O)c2ccccc2c1O
MEASURED_TARGET: AP-2 complex subunit beta (Homo sapiens) (UniProt P63010)
inhibition, %: -7.21

Provide one value: measured inhibition of COc1ccc(CCN=CC2=C(O)CC(C)(C)CC2=O)cc1
-11.8

Provide one value: measured inhibition of COc1ccc(-c2nc(NC(C)=O)sc2-c2ccc(OC)cc2)cc1
-11.5

Provide one value: measured inhibition of CCN(CC)CCNC(=O)c1ccc(N)cc1
-0.67

Provide one value: measured inhibition of CC(NC(=O)c1cccnc1)C(=O)O (configuration not stated)
0.46

Provide one value: measured inhibition of Cc1ccc2c(c1)c(=O)c1c3n2CCN(C(=O)CCl)C3CC1 (configuration not stated)
20.6

Provide one value: measured inhibition of O=C(O)c1ccc(C(=O)C(=O)c2ccccc2)cc1
1.48

Provide one value: measured inhibition of O=C(OCC1CCCN2CCCCC12)c1ccc2c(c1)OCO2 (configuration not stated)
-5.07

Provide one value: measured inhibition of CCOC(=O)C1=C(C)N[C@@]2(O)c3ccccc3C(=O)[C@@]12O
12.9

Provide one value: measured inhibition of O=C(O)/C=C/c1cnc[nH]1
-0.6

Provide one value: measured inhibition of N=c1nc(N2CCCCC2)cc(N)n1O
33.9
